endpointName: melting point

Example molecules with recorded melting point:
Cc1ccc(-c2c3ccccc3nn2Cc2cccc(Cl)c2)cc1 [Compound 17]; 98 to 100 °C
CCOC(=O)c1ccc(-c2c3ccccc3nn2Cc2ccccc2)cc1 [Compound 28]; 112 to 113 °C

Next:
Which value of melting point has been reported for COc1ccc(Cn2nc3ccccc3c2-c2ccc(C)cc2)cc1 [Compound 25] in the records?
113.6 to 115 °C

---

melting point overview

Example compounds with recorded melting point:
COC(=O)c1ccc(-c2c3ccccc3nn2Cc2ccc(F)cc2)cc1; 121 to 122 °C
Cc1ccc(Cn2nc(-c3ccc(C)cc3)c3ccccc32)cc1; 79.6 to 82.3 °C
Cc1ccc(-c2c3ccccc3nn2Cc2ccccc2C)cc1; 125 to 128.8 °C
COC(=O)c1ccc(-c2c3ccccc3nn2Cc2ccco2)cc1; 140 to 143 °C
OCc1ccc(-c2c3ccccc3nn2Cc2ccco2)cc1; 129 to 130 °C
CCOC(=O)c1ccc(-c2nn(Cc3ccccc3F)c3ccccc23)cc1; 102 to 103 °C
CCOC(=O)c1ccc(-c2c3ccccc3nn2Cc2ccccc2F)cc1; 94 to 96 °C
Cc1ccc(-c2n[nH]c3ccccc23)cc1; 106 to 107 °C

Next:
Which value of melting point has been reported for Cc1ccc(-c2c3ccccc3nn2Cc2ccccc2)cc1 in the records?
110.7 to 111.3 °C
